Field: viability at 24 h, 5 µM. Provide a value for each of the compounds that follow.
experiment: Cytotoxicity against human Huh-7 cells harboring viral replicon/EGFP/Neo genes assessed as cell viability at 5 uM incubated for 24 hrs by Cell Titer Glo assay relative to control
Assay type: toxicity, cell-based
measurement context: read-out: Activity
Numbers only, in %.

Some entries whose results are on file:
smiles=O=C(CCc1cc(O)c(O)c(O)c1)c1ccc(F)cc1 measured_metric="viability at 24 h, 5 µM" result_unit=% result_number=110
smiles=O=C(/C=C/c1cc(O)c(O)c(O)c1)c1ccc(F)cc1 measured_metric="viability at 24 h, 5 µM" result_unit=% result_number=95.2
smiles=O=C(/C=C/c1c(Cl)c(O)c(O)c(O)c1Cl)c1ccc(O)cc1 measured_metric="viability at 24 h, 5 µM" result_unit=% result_number=105
smiles=O=C(/C=C/c1c(Cl)c(O)c(O)c(O)c1Cl)c1ccc([N+](=O)[O-])cc1 measured_metric="viability at 24 h, 5 µM" result_unit=% result_number=110
smiles=O=C(/C=C/c1c(Cl)c(O)c(O)c(O)c1Cl)c1c(Cl)c(O)c(O)c(O)c1Cl measured_metric="viability at 24 h, 5 µM" result_unit=% result_number=111

Fill in viability at 24 h, 5 µM for each of the 3 compounds listed.
1. O=C(/C=C/c1c(Cl)c(O)c(O)c(O)c1Cl)c1ccc(F)cc1
2. O=C(/C=C/c1c(Cl)c(O)c(O)c(O)c1Cl)c1ccc(F)cc1Cl
3. O=C(/C=C/c1cc(O)c(O)c(O)c1Cl)c1ccc(F)cc1

[104, 104, 106]

The measurements presented in this section are drawn from ChEMBL document CHEMBL6078649.
